System: Human mast cells (CHMC)
procedure.details: Mast cell activation induced by FcγR cross-linking: cytokine production (ELISA)
Assay type: cell-based
reported.conditions: Homo sapiens, Mast cell, 6-8 hrs post-IgG crosslinking, read-out: EC50 IL-10
pEC50: −log10 of the molar value.

{"molecule": "COc1cc(Nc2ncc(F)c(Nc3ccc4c(n3)NC(=O)C(C)(C)O4)n2)cc(OC)c1OC [Compound 1]", "system.tested": "Human mast cells (CHMC)", "pEC50": 6.90}

----------
Tested on: Human mast cells (CHMC)
procedure.details: Mast cell activation induced by FcγR cross-linking: cytokine production (ELISA)
Type: cell-based
reported.conditions: 6-8 hrs post-IgG crosslinking, listed as lot B, read-out: EC50 TNFα
metric: EC50 (nM)

{"molecule": "COc1cc(Nc2ncc(F)c(Nc3ccc4c(n3)NC(=O)C(C)(C)O4)n2)cc(OC)c1OC [Compound 1]", "system.tested": "Human mast cells (CHMC)", "measured.number": 120}

----------
Tested on: Human mast cells (CHMC)
procedure.details: Mast cell activation induced by FcγR cross-linking: cytokine production (ELISA)
Type: cell-based
reported.conditions: 6-8 hrs post-IgG crosslinking, listed as lot B, read-out: EC50 GMCSF
Protocol: Human mast cells were cultured and differentiated from CD38-negative progenitor cell as described in U.S. Patent Publication No. 2005-234049, incorporated herein by reference. […] A80-105A3) final concentration 1 μg/ml, was added to the test wells. MT (25 μl) was added to control wells. After a 60-minute incubation at 37° C., cells and cell debris were pelleted by centrifugation at 1000 rpm for 10 min and tryptase and leukotriene C4 levels were measured. […]
metric: EC50 (nM)

{"smiles.entry": "COc1cc(Nc2ncc(F)c(Nc3ccc4c(n3)NC(=O)C(C)(C)O4)n2)cc(OC)c1OC", "metric": "EC50", "measured.number": 67}

----------
Test system: Human mast cells (CHMC)
procedure.details: Mast cell activation induced by FcγR cross-linking: cytokine production (ELISA)
Type: cell-based
reported.conditions: 6-8 hrs post-IgG crosslinking, listed as lot B, read-out: EC50 IL-13
pEC50: −log10 of the molar value.

{"smiles.entry": "COc1cc(Nc2ncc(F)c(Nc3ccc4c(n3)NC(=O)C(C)(C)O4)n2)cc(OC)c1OC", "pEC50": 6.83}

----------
System: Human mast cells (CHMC)
procedure.details: Mast cell activation induced by FcγR cross-linking: cytokine production (ELISA)
Format: cell-based
reported.conditions: 6-8 hrs post-IgG crosslinking, listed as lot B, read-out: EC50 IL-8
pEC50: −log10 of the molar value.

{"smiles.entry": "COc1cc(Nc2ncc(F)c(Nc3ccc4c(n3)NC(=O)C(C)(C)O4)n2)cc(OC)c1OC", "pEC50": 7.21}
